Below, each entry is listed with its recorded KD ratio (Ab1/variant Ab).
target: T1, EGFRvIII extracellular domain (EGFR (1-29)-G-(298-645)-LESRGPF-Myc-NMHTG-6His) (human, UniProt P00533 298-641); test: SPR (Biacore), antibody captured via anti-human Fc, antigen injected
T1 construct: also called recombinant EGFRvIII; not shown: Myc tag

binder | KD ratio (Ab1/variant Ab)
Antibody H (AbH) (antibody, V domains shown, Full length IgG1) VH: EVQLQESGPGLVKPSQTLSLTCTVSGYSIGKDFAWNWIRQPPGKGLEWMGYISYNGNTRYQPSLKSRITISRDTSKNQFFLKLNSVTAADTATYYCVTASRGLPYWGQGTLVTVSS VL: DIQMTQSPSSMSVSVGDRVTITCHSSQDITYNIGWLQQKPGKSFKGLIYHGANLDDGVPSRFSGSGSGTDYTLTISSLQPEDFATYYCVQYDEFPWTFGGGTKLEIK | 63.1
Antibody L (AbL) (antibody, V domains shown, Full length IgG1) VH: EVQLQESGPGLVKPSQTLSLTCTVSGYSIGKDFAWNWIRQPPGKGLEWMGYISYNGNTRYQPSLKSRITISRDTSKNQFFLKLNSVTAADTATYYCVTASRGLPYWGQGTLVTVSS VL: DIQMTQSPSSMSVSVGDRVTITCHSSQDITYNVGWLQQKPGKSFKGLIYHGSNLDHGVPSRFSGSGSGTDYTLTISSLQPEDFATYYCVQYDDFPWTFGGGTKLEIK | 27.1
Antibody M (AbM) (antibody, V domains shown, Full length IgG1) VH: EVQLQESGPGLVKPSQTLSLTCTVSGYSIGRDFAWNWIRQPPGKGLEWMGYISYNGNTRYQPSLKSRITISRDTSKNQFFLKLNSVTAADTATYYCVTASRGFPYWGQGTLVTVSS VL: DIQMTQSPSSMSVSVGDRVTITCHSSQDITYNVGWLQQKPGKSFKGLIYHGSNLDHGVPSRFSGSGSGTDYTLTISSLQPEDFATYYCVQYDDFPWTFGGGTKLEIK | 14.9
